Biological target: T1, IL10Rα/IL2Rγ receptor (human) (UniProt Q13651)
T1 sequence (looked up) 1: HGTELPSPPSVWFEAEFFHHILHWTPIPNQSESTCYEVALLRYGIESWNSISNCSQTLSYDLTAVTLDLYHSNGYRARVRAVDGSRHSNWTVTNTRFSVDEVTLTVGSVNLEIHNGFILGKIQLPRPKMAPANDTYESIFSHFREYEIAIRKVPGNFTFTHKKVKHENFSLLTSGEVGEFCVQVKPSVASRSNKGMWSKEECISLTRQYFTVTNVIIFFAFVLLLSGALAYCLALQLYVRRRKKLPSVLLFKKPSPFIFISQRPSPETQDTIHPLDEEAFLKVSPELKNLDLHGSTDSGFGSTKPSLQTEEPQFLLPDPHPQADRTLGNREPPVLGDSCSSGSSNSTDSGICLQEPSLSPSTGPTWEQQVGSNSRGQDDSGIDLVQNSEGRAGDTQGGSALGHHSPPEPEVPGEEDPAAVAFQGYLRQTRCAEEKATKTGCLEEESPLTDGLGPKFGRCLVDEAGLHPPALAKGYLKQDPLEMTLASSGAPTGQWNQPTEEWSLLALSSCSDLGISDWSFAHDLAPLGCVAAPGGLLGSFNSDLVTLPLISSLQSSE
T1 sequence (looked up) 2: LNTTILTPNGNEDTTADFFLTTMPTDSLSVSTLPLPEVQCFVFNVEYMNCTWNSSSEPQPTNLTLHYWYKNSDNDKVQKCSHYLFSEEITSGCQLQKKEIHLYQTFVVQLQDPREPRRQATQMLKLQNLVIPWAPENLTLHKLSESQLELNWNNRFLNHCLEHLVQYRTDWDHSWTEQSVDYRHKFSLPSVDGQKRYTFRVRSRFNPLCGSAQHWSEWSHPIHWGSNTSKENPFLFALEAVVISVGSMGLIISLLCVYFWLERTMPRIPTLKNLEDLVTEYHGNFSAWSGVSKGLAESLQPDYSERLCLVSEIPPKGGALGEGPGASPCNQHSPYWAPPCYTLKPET
Assay: cell-based or functional assay
This section presents binders with their documented Granzyme A secretion, CD8 T cells, at 10 µM values.
Lab book: enter the figure in pg/mL, no units written.

Recorded Granzyme A secretion, CD8 T cells, at 10 µM, per entry:
- Binder: "hIL10Ra_VHH14 - hIL2Rg_VHH19, linker GS, tag his (bispecific antibody, not shown: small tags and cut ends) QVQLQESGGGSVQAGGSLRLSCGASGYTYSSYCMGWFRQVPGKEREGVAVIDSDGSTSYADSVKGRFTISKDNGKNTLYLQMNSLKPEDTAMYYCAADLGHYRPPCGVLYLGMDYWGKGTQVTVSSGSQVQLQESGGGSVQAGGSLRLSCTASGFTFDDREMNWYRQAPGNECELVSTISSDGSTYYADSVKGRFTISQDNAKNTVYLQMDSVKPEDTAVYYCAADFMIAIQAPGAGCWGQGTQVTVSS"
  Endpoint unit: "pg/mL"
  Data value: 28600
- Binder: "hIL10Ra_VHH14 - hIL2Rg_VHH19, linker GGGS, tag Fc (bispecific antibody, not shown: a dimerising Fc or GST) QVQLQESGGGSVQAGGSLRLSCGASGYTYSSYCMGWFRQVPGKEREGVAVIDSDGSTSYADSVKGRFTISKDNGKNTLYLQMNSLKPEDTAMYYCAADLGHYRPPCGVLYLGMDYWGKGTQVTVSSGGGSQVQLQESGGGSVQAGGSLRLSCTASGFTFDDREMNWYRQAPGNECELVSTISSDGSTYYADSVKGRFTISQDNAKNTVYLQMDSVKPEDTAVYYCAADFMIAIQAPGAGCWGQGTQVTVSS"
  Endpoint unit: "pg/mL"
  Data value: 28500

stdin: If you can, please state the reported Granzyme A secretion, CD8 T cells, at 10 µM value of hIL10Ra_VHH14 - hIL2Rg_VHH19, linker GGGSGGGS, tag his (bispecific antibody, not shown: small tags and cut ends) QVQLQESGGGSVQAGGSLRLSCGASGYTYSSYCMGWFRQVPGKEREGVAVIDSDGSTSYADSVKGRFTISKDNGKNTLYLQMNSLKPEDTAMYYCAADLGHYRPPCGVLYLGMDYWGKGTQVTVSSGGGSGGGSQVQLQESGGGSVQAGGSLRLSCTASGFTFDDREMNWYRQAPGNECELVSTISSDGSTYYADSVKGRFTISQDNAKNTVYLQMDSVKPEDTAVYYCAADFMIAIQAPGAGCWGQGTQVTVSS .
stdout: 29300

The measurements presented in this section are drawn from patent US20250163162A1.
